Values were extracted from patent US20240294641A1.

measured target: T1, full-length human PD1 expressed on NS1 cells (PD1-NS1) (human, UniProt Q15116 25-288)
T1 construct: whole, on cells; also called surface-expressed PD1; PD1 expressing cell line
T1 sequence (Q15116 25-288): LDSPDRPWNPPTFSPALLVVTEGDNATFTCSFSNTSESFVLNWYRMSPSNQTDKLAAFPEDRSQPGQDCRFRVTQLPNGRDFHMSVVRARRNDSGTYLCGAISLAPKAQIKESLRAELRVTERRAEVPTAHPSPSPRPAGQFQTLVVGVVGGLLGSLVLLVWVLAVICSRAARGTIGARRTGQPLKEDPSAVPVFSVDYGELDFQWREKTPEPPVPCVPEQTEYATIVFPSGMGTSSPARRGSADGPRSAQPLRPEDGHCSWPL
experimental details: FACS on PD1-NS1 cells, PE-anti-human kappa
quantity measured: binding result

INSERT INTO assay_data (binder, result) VALUES
  ('M1-4 (antibody, V domains shown, Expressed as human IgG4/kappa in 293F or Expi293 cells; also called 319-9-27) VH: QVQLVESGGDVVQPGGSLRLSCAVSGVTFGDFGFEWVRQAPGKGLEWVAVIWYDGSRKHYAESVRGRFTISRDNSRNMMYLEMTGLRVEDTAKYYCTRSHSHEDYWGQGTLVTVSS VL: EIVLTQSPATLSLSPGERATLSCRASQSISNYLAWFQQKSGQAPRLIIHDAFKRAAGIPTRFSGSGSGTDFTLTISSLEPEDFAVYYCQQRDNWPLNFGGGTKVEIK', 'binds');
